Assay: NCI Yeast Anticancer Drug Screen. Data for the mlh1 rad18 strain (AID 175)
Details: S. cerevisiae mlh1 rad18 strain growth inhibition, active compounds read high; at 50.0 µM unless noted
The panel holds about 79,000 compounds, 15% with a hit somewhere; the sample as a whole holds those more often.
Endpoint name: growth inhibition (%)
API: value field is a number in %; no unit string.

Consider the following illustrative entries.
- Molecule: "CC1(C)SCc2nc3ccccc3n21"
  growth inhibition [%]: 6.3
- Molecule: "O=C(Nc1ccc(O)cc1)c1ccc([N+](=O)[O-])cc1"
  growth inhibition [%]: -2.2
- Molecule: "CCSC(=O)C(F)(F)F"
  growth inhibition [%]: -25.6
- Molecule: "CC1=CCCC2C(C=O)(C1)CC(C)C2(CO)CC/C(=C/CO)CO (stereo not given)"
  growth inhibition [%]: -5.7
- Molecule: "Nc1cc2c(cc1[N+](=O)[O-])-c1ccc(Cl)cc1C2=O"
  growth inhibition [%]: 41.2

# input What value of measured growth inhibition is listed for CCCCCCC1(C)NC(=O)NC1=O (stereo not given) ?
# output -8.3

# input What value of measured growth inhibition is listed for CCOc1c(N=Nc2cccc(Cl)c2)c(C)nn1C(N)=S ?
# output 19.4

# input What value of measured growth inhibition is listed for NC1=NCC(CN2CCCCC2)O1 (stereo not given) ?
# output 5.9

# input What value of measured growth inhibition is listed for O=C1OCCOCCOCCOCCOC(=O)c2cccc1n2 ?
# output 7.2

# input What value of measured growth inhibition is listed for c1ccc(CSCc2cnc[nH]2)cc1 ?
# output -6.95

# input What value of measured growth inhibition is listed for Nn1c(N=Nc2c(O)[nH]c3ccccc23)n[nH]c1=S ?
# output 23.9

Where these numbers come from: PubChem BioAssay (NCI)
